Give measured residual activity for each item. Keep answers brief.
# tgt: CDK2 CCNA2 (human) (UniProt P24941+P20248)
# Sequence (P20248 whole entry, looked up, other chains not shown): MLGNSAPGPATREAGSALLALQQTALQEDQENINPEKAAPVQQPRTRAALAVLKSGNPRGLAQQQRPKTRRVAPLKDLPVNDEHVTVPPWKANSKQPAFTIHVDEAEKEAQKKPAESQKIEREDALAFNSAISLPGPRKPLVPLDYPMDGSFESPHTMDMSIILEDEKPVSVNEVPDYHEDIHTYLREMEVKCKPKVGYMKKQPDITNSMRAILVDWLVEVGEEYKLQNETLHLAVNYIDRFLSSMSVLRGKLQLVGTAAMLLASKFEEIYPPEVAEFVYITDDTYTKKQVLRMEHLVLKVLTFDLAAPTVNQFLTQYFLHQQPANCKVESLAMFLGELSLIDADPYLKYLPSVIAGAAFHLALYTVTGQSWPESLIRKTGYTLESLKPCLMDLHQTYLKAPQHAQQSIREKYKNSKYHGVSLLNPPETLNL
# procedure.text: Free Choice Kinase Assay Projects, Flashplate
# details: compound 10.0 µM; ATP 0.3 µM
Answers are plain numbers, in %.

- structure.as.smiles: "Fc1ccc(-c2[nH]c(CCc3ccccc3)nc2-c2ccncc2)cc1"
  tgt: "CDK2 CCNA2 (human) (UniProt P24941+P20248)"
  observed.measurement: 45

Please state residual activity for every molecule in the list that follows.
1. Fc1ccc(-c2[nH]c(SCc3ccccc3)nc2-c2ccnc(Cl)c2)cc1
2. Fc1ccc(-c2[nH]c(SCc3ccccc3)nc2-c2ccncc2)cc1

OUT:
1. 43
2. 77

Report residual activity for each item below.
1. On1c(/C=C/c2ccccc2)nc(-c2ccncc2)c1-c1ccc(F)cc1
2. Oc1ccccc1CSc1nc(-c2ccncc2)c(-c2ccc(F)cc2)[nH]1

OUT:
1. 20
2. 54

----------
Would you kindly list residual activity for each of these compounds?
# tgt: NUAK1 (human) (UniProt O60285)
# Sequence (O60285 whole entry, looked up): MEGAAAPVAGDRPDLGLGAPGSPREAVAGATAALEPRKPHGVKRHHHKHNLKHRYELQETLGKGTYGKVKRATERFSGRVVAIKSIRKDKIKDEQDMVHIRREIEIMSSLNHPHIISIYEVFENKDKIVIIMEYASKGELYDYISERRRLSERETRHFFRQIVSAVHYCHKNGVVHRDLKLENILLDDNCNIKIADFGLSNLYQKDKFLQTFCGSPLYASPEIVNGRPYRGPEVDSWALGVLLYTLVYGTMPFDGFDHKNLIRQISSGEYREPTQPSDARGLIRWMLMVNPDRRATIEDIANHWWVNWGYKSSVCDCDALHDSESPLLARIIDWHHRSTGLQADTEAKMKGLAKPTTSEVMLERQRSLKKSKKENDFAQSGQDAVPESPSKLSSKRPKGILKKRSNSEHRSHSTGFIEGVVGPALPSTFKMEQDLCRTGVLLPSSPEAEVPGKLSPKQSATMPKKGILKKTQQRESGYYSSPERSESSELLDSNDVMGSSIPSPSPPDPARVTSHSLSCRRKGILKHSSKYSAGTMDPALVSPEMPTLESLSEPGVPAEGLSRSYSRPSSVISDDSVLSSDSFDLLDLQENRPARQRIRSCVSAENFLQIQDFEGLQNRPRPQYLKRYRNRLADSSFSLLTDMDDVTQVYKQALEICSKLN
# procedure.text: Free Choice Kinase Assay Projects, Flashplate
# details: compound 10.0 µM; ATP 1 µM
Numbers only, in %.

- structure.as.smiles: "CSc1nc(-c2ccnc(N(C(=O)C3CC3)C(=O)C3CC3)c2)c(-c2ccc(F)cc2)n1C"
  residual activity (%): 106
- structure.as.smiles: "Oc1ccccc1CSc1nc(-c2ccncc2)c(-c2ccc(F)cc2)[nH]1"
  residual activity (%): 108
- structure.as.smiles: "CSc1ccc(CSc2nc(-c3ccncc3)c(-c3ccc(Br)cc3)[nH]2)cc1"
  residual activity (%): 94
- structure.as.smiles: "Oc1ccc(CSc2nc(-c3ccncc3)c(-c3ccc(F)cc3)[nH]2)cc1"
  residual activity (%): 126

// moving on: another record for residual activity
Record `CSc1nc(-c2ccnc(NC(C)=O)c2)c(-c2ccc(F)cc2)n1C` . Reported residual activity: 104

----------
# tgt: CSNK2A1 (human) (UniProt P68400)
# Sequence (P68400 whole entry, looked up): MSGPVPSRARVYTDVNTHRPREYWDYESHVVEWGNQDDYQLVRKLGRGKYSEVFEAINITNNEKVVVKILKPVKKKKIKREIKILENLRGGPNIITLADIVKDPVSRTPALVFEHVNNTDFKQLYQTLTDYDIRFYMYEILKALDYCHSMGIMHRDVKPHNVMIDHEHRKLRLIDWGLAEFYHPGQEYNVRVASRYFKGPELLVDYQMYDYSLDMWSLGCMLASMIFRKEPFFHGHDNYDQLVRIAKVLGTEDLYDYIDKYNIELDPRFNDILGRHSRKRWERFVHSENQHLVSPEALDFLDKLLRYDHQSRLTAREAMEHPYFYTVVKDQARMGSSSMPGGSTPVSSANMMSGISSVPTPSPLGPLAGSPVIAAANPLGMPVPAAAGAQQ
# procedure.text: Free Choice Kinase Assay Projects, Flashplate
# details: compound 10.0 µM; ATP 0.1 µM
measured.metric: residual activity (%)
Numbers only, in %.

See these solved cases before continuing.
- compound: "CSc1nc(-c2ccnc(F)c2)c(-c2ccc(F)cc2)[nH]1"
  unit: "%"
  residual activity: 98
- compound: "CC(Nc1cc(-c2nc(SCc3ccccc3)[nH]c2-c2ccc(F)cc2)ccn1)c1ccccc1 (stereo not given)"
  unit: "%"
  residual activity: 78
- compound: "CSc1ccc(CSc2nc(-c3ccncc3)c(-c3ccc(Br)cc3)[nH]2)cc1"
  unit: "%"
  residual activity: 71

Quick batch: residual activity for everything below.
1. CSc1ccc(CSc2nc(-c3ccncc3)c(-c3ccc(F)cc3)[nH]2)cc1
2. On1c(/C=C/c2ccccc2)nc(-c2ccncc2)c1-c1ccc(F)cc1

OUT:
76
68

Please give residual activity, item by item, for the list that follows.
1. Fc1ccc(-c2[nH]c(SCc3ccccc3)nc2-c2ccnc(F)c2)cc1
2. CSc1ccccc1CSc1nc(-c2ccncc2)c(-c2ccc(F)cc2)[nH]1
3. Fc1ccc(-c2[nH]c(SCCc3ccccc3)nc2-c2ccncc2)cc1
4. Fc1ccc(-c2[nH]c(/C=C/c3ccccc3)nc2-c2ccncc2)cc1
5. Oc1ccc(CSc2nc(-c3ccncc3)c(-c3ccc(F)cc3)[nH]2)cc1

OUT:
1. 86
2. 83
3. 96
4. 73
5. 107

----------
# tgt: PTK2 (human) (UniProt Q05397)
# Sequence (Q05397 whole entry, looked up): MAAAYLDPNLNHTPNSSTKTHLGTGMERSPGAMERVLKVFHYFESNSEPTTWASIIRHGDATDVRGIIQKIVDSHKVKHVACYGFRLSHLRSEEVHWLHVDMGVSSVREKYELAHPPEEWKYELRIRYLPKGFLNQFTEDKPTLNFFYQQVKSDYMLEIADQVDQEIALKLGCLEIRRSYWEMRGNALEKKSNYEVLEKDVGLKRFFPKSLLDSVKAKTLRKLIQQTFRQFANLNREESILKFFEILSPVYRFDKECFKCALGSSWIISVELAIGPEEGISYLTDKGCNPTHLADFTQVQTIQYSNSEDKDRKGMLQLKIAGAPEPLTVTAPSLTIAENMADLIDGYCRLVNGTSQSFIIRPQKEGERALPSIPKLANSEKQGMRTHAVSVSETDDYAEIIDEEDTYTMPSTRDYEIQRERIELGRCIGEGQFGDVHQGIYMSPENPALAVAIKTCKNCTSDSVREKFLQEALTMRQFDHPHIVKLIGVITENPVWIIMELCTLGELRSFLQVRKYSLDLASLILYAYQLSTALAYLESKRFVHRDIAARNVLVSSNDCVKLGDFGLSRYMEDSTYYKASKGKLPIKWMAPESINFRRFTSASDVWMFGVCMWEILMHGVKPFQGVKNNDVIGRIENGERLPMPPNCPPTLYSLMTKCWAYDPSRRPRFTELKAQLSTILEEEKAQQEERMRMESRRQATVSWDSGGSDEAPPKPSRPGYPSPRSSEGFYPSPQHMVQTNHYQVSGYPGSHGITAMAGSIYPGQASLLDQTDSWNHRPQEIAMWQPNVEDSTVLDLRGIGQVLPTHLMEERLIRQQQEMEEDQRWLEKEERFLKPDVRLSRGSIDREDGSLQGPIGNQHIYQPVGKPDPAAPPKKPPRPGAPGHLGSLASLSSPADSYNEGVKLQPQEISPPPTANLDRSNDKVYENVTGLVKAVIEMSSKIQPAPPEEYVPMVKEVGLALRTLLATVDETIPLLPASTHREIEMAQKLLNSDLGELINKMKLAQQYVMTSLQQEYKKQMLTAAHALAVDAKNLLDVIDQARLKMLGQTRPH
# procedure.text: Free Choice Kinase Assay Projects, Flashplate
# details: compound 10.0 µM; ATP 1 µM
// boundary case: residual activity equal to 90% maps to Not satisfied; strictly smaller maps to Satisfied

# count of solved cases: 3
- compound: "CSc1nc(-c2ccnc(F)c2)c(-c2ccc(F)cc2)[nH]1"
  label: "Not satisfied"
- compound: "Fc1ccc(-c2[nH]c(/C=C/c3ccccc3)nc2-c2ccncc2)cc1"
  label: "Satisfied"
- compound: "CSc1ccc(CSc2nc(-c3ccncc3)c(-c3ccc(F)cc3)[nH]2)cc1"
  label: "Not satisfied"

IN: Quick check: residual activity of `CSc1nc(-c2ccnc(NC(=O)C3CC3)c2)c(-c2ccc(F)cc2)n1C` under 90%?
OUT: Satisfied

IN: Does this compound meet the criterion residual activity < 90%? `CSc1ccc(CSc2nc(-c3ccncc3)c(-c3ccc(Br)cc3)[nH]2)cc1`
OUT: Not satisfied

IN: A record lists `On1c(/C=C/c2ccccc2)nc(-c2ccncc2)c1-c1ccc(F)cc1` . Is its residual activity below 90%?
OUT: Satisfied

IN: Consider the compound `CSc1ccccc1CSc1nc(-c2ccncc2)c(-c2ccc(F)cc2)[nH]1` . Is its residual activity strictly less than 90%?
OUT: Not satisfied

IN: In plain terms, does `CSc1nc(-c2ccnc(N(C(=O)C3CC3)C(=O)C3CC3)c2)c(-c2ccc(F)cc2)n1C` come in under 90% for residual activity?
OUT: Satisfied

----------
# tgt: CDK4 CCND1 (human) (UniProt P11802+P24385)
# Sequence (P11802 whole entry, looked up): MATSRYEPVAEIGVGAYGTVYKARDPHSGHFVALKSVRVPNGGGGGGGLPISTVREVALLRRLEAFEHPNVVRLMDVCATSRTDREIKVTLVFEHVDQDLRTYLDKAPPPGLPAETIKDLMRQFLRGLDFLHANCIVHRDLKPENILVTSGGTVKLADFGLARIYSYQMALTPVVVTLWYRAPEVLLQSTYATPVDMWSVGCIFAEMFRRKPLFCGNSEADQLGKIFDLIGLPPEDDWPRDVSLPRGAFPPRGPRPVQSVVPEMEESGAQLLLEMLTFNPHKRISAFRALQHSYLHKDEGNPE
# Sequence (P24385 whole entry, looked up): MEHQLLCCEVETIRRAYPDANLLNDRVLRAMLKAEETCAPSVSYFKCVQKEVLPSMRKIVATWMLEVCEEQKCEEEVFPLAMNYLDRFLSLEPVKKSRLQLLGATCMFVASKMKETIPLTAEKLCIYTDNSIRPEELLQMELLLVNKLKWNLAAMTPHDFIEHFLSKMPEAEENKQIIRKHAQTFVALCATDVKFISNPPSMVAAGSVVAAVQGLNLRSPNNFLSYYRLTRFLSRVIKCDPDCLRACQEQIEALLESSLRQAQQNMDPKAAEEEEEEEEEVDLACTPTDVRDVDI
# procedure.text: Free Choice Kinase Assay Projects, Flashplate
# details: compound 10.0 µM; ATP 3 µM
Provide the reported residual activity of each item.
One number for each entry, in %.

- structure.as.smiles: "CSc1ccccc1CSc1nc(-c2ccncc2)c(-c2ccc(F)cc2)[nH]1"
  tgt: "CDK4 CCND1 (human) (UniProt P11802+P24385)"
  observed.measurement: 89
- structure.as.smiles: "Fc1ccc(-c2[nH]c(SCc3ccccc3)nc2-c2ccnc(F)c2)cc1"
  tgt: "CDK4 CCND1 (human) (UniProt P11802+P24385)"
  observed.measurement: 109
- structure.as.smiles: "Fc1ccc(-c2[nH]c(SCCCc3ccccc3)nc2-c2ccncc2)cc1"
  tgt: "CDK4 CCND1 (human) (UniProt P11802+P24385)"
  observed.measurement: 99
- structure.as.smiles: "COc1ccc(C(=O)Nc2cc(-c3nc(SC)n(C)c3-c3ccc(F)cc3)ccn2)cc1"
  tgt: "CDK4 CCND1 (human) (UniProt P11802+P24385)"
  observed.measurement: 76

Response field residual activity (CDK4 CCND1 (human) (UniProt P11802+P24385)) for item `Fc1ccc(-c2[nH]c(SCc3cccc4ccccc34)nc2-c2ccncc2)cc1` : 44

----------
So I've got a bunch of compounds here, and I need their residual activity values.
# tgt: PLK1 (human)
# procedure.text: Free Choice Kinase Assay Projects, Flashplate
# details: compound 10.0 µM; ATP 1 µM

- compound: "CC(Nc1cc(-c2nc(SCc3ccccc3)[nH]c2-c2ccc(F)cc2)ccn1)c1ccccc1 (stereo unspecified)"
  residual activity: "38%"
- compound: "Oc1ccc(CSc2nc(-c3ccncc3)c(-c3ccc(F)cc3)[nH]2)cc1"
  residual activity: "120%"
- compound: "CSc1ccc(CSc2nc(-c3ccncc3)c(-c3ccc(Br)cc3)[nH]2)cc1"
  residual activity: "94%"
- compound: "On1c(/C=C/c2ccccc2)nc(-c2ccncc2)c1-c1ccc(F)cc1"
  residual activity: "51%"
- compound: "Fc1ccc(-c2[nH]c(CCc3ccccc3)nc2-c2ccncc2)cc1"
  residual activity: "95%"
- compound: "Fc1ccc(-c2[nH]c(SCc3cccc4ccccc34)nc2-c2ccncc2)cc1"
  residual activity: "46%"

For every record below, what is its residual activity?
1. Oc1ccccc1CSc1nc(-c2ccncc2)c(-c2ccc(F)cc2)[nH]1
2. Fc1ccc(-c2[nH]c(/C=C/c3ccccc3)nc2-c2ccncc2)cc1

OUT:
1: 104%; 2: 39%

For every record below, what is its residual activity?
1. Fc1ccc(-c2[nH]c(SCC3CCCCC3)nc2-c2ccncc2)cc1
2. N#CCSc1nc(-c2ccncc2)c(-c2ccc(F)cc2)[nH]1
3. On1c(CCc2ccccc2)nc(-c2ccncc2)c1-c1ccc(F)cc1

OUT:
["83%", "86%", "100%"]

----------
# tgt: AURKA (human) (UniProt O14965)
# Sequence (O14965 whole entry, looked up): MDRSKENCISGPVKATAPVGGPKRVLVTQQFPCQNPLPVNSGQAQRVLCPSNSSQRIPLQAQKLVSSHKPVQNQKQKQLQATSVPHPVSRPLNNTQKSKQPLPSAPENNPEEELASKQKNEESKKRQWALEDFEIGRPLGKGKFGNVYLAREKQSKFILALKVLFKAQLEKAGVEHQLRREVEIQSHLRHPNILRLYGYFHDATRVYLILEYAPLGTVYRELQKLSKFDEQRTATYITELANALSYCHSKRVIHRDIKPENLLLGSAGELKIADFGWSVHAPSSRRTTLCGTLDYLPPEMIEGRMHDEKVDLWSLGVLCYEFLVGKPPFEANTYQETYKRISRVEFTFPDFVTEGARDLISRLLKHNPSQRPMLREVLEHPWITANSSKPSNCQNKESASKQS
# procedure.text: Free Choice Kinase Assay Projects, Flashplate
# details: compound 10.0 µM; ATP 10 µM
measured.metric: residual activity (%)
One number for each entry, in %.

Example entries begin here.
- molecule: "CSc1ccccc1CSc1nc(-c2ccncc2)c(-c2ccc(F)cc2)[nH]1"
  tgt: "AURKA (human) (UniProt O14965)"
  measured.metric: "residual activity"
  unit: "%"
  observed.measurement: 80
- molecule: "CSc1nc(-c2ccnc(F)c2)c(-c2ccc(F)cc2)[nH]1"
  tgt: "AURKA (human) (UniProt O14965)"
  measured.metric: "residual activity"
  unit: "%"
  observed.measurement: 93
- molecule: "N#CCSc1nc(-c2ccncc2)c(-c2ccc(F)cc2)[nH]1"
  tgt: "AURKA (human) (UniProt O14965)"
  measured.metric: "residual activity"
  unit: "%"
  observed.measurement: 53
- molecule: "Fc1ccc(-c2[nH]c(/C=C/c3ccccc3)nc2-c2ccncc2)cc1"
  tgt: "AURKA (human) (UniProt O14965)"
  measured.metric: "residual activity"
  unit: "%"
  observed.measurement: 38
- molecule: "On1c(CCc2ccccc2)nc(-c2ccncc2)c1-c1ccc(F)cc1"
  tgt: "AURKA (human) (UniProt O14965)"
  measured.metric: "residual activity"
  unit: "%"
  observed.measurement: 44
- molecule: "CSc1ccc(CSc2nc(-c3ccncc3)c(-c3ccc(F)cc3)[nH]2)cc1"
  tgt: "AURKA (human) (UniProt O14965)"
  measured.metric: "residual activity"
  unit: "%"
  observed.measurement: 79
- molecule: "Fc1ccc(-c2[nH]c(SCc3ccccc3)nc2-c2ccncc2)cc1"
  tgt: "AURKA (human) (UniProt O14965)"
  measured.metric: "residual activity"
  unit: "%"
  observed.measurement: 79
- molecule: "Fc1ccc(-c2[nH]c(SCCCc3ccccc3)nc2-c2ccncc2)cc1"
  tgt: "AURKA (human) (UniProt O14965)"
  measured.metric: "residual activity"
  unit: "%"
  observed.measurement: 88
- molecule: "CSc1nc(-c2ccnc(NC(=O)C3CC3)c2)c(-c2ccc(F)cc2)n1C"
  tgt: "AURKA (human) (UniProt O14965)"
  measured.metric: "residual activity"
  unit: "%"
  observed.measurement: 31
- molecule: "On1c(/C=C/c2ccccc2)nc(-c2ccncc2)c1-c1ccc(F)cc1"
  tgt: "AURKA (human) (UniProt O14965)"
  measured.metric: "residual activity"
  unit: "%"
  observed.measurement: 18

Below are 5 molecules. Give each one its residual activity.
1. Fc1ccc(-c2[nH]c(SCCc3ccccc3)nc2-c2ccncc2)cc1
2. CSc1ccc(CSc2nc(-c3ccncc3)c(-c3ccc(Br)cc3)[nH]2)cc1
3. COc1ccc(C(=O)Nc2cc(-c3nc(SC)n(C)c3-c3ccc(F)cc3)ccn2)cc1
4. CC(Nc1cc(-c2nc(SCc3ccccc3)[nH]c2-c2ccc(F)cc2)ccn1)c1ccccc1 (stereo not given)
5. Fc1ccc(-c2[nH]c(SCc3cccc4ccccc34)nc2-c2ccncc2)cc1

OUT:
75
78
97
64
54
